- Protocol description: ATG_PPRE_CIS: Attagene CIS-FACTORIAL HepG2 Assay for human Peroxisome Proliferator-activated Response Element (PPRE) (AID 2282958)
- Test conditions: HepG2 PPRE cis-element reporter, Attagene transcription factor profiling; actives raise or lower the signal
Active and inactive are the calls of the source. How the source made its calls: active means hit-call score of the fitted dose curve at least 0.9, where 1 is the maximum; inactive means score below 0.9.
In this exercise, the only acceptable responses are 1 (yes) (active), 0 (no) (inactive)

>>> df
                                   molecule  discrete_label
0  CC(C)N(C(=O)COc1nnc(C(F)(F)F)s1)c1ccc(F)cc1          0 (no)
1  CCC(C)(NC(=O)c1cc(Cl)c(C)c(Cl)c1)C(=O)CCl (configuration not stated)          0 (no)
2                     COP(=O)(OC)OC=C(Cl)Cl         1 (yes)

Turning to the following molecule.
Call for entry CCS(=O)(=O)c1cccnc1S(=O)(=O)NC(=O)Nc1nc(OC)cc(OC)n1 :
0 (no)

----------
- Protocol description: ATG_MRE_CIS: Attagene CIS-FACTORIAL HepG2 Assay for human Metal Responsive Element (MRE) (AID 2282954)
- Test conditions: HepG2 MRE cis-reporter transcription, Attagene multiplex; actives raise or lower the signal
Activity calls are given as the source filed them. The calls were made as follows: active = hit-call score of the fitted dose curve at least 0.9, where 1 is the maximum; inactive = score below 0.9.
In this exercise, the only acceptable responses are active, inactive

Call for entry CNC(=O)CSP(=S)(OC)OC :
inactive

Call for entry CCC(C)Nc1c([N+](=O)[O-])cc(C(C)(C)C)cc1[N+](=O)[O-] (configuration not stated) :
active

Call for entry CCC(C)(NC(=O)c1cc(Cl)c(C)c(Cl)c1)C(=O)CCl (configuration not stated) :
inactive

Call for entry O=C(O)CCCOc1ccc(Cl)cc1Cl :
inactive

Call for entry O=[N+]([O-])c1c(Cl)c(Cl)c(Cl)c(Cl)c1Cl :
active

Call for entry Cc1[nH]c(=O)n(C(C)(C)C)c(=O)c1Cl :
active

Call for entry O=C(Nc1ccccc1)Nc1cnns1 :
active

Call for entry COC(=O)c1ccccc1S(=O)(=O)NC(=O)N(C)c1nc(C)nc(OC)n1 :
inactive

----------
- Read-out: Interleukin-8 (IL8), CXCL8 (gene 3576)
- Protocol description: BSK_3C_IL8: BioMAP Diversity Plus: 3C Assay for Interleukin-8 (IL8) Biomarker Activity (AID 2283020)
- Test conditions: primary human endothelial cells (HUVEC); actives raise or lower the signal
The source made the active and inactive calls. How the source made its calls: active means hit-call score of the fitted dose curve at least 0.9, where 1 is the maximum; inactive means score below 0.9.
In this exercise, the only acceptable responses are active, inactive

These solved cases illustrate the format of a correct answer.
Compound	Discrete label
CN1CSC(=S)N(C)C1	inactive
CC[C@H](C)[C@H]1O[C@]2(C=C[C@@H]1C)C[C@@H]1C[C@@H](C/C=C(\C)[C@@H](O[C@H]3C[C@H](OC)[C@@H](O[C@H]4C[C@H](OC)[C@@H](O)[C@H](C)O4)[C@H](C)O3)[C@@H](C)/C=C/C=C3\CO[C@@H]4[C@H](O)C(C)=C[C@@H](C(=O)O1)[C@]34O)O2 (tested in a mixture with another compound)	active

Turning to the following compound.
Call for entry O=[N+]([O-])/N=C1\NCCN1Cc1ccc(Cl)nc1 :
inactive

----------
- Read-out: Intercellular Adhesion Molecule 1 (ICAM1), ICAM1 (gene 3383)
- Protocol description: BSK_KF3CT_ICAM1: BioMAP Diversity Plus: KF3CT Assay for Intercellular Adhesion Molecule 1 (ICAM1) Biomarker Activity (AID 2283067)
- Test conditions: primary human keratinocytes with fibroblasts; actives raise or lower the signal
Calls of active or inactive are those of the source. How the source made its calls: active means hit-call score of the fitted dose curve at least 0.9, where 1 is the maximum; inactive means score below 0.9.
In this exercise, the only acceptable responses are class 1 (active), class 0 (inactive)

Compound	Discrete label
CC(C)N(C(=O)COc1nnc(C(F)(F)F)s1)c1ccc(F)cc1	class 0

Call for entry CCCN(CCOc1c(Cl)cc(Cl)cc1Cl)C(=O)n1ccnc1 :
class 0

Call for entry CNC(=O)Oc1cccc(N=CN(C)C)c1 :
class 0

Call for entry CC1(c2ccc(Oc3ccccc3)cc2)OC(=O)N(Nc2ccccc2)C1=O (stereo not drawn) :
class 0

Call for entry COC(=O)c1ccccc1S(=O)(=O)NC(=O)Nc1nc(C)nc(OC)n1 :
class 0

Call for entry CC[C@H](C)[C@H]1O[C@]2(C=C[C@@H]1C)C[C@@H]1C[C@@H](C/C=C(\C)[C@@H](O[C@H]3C[C@H](OC)[C@@H](O[C@H]4C[C@H](OC)[C@@H](O)[C@H](C)O4)[C@H](C)O3)[C@@H](C)/C=C/C=C3\CO[C@@H]4[C@H](O)C(C)=C[C@@H](C(=O)O1)[C@]34O)O2 (tested in a mixture with another compound) :
class 1

Call for entry COP(=S)(OC)Oc1ccc(SC)c(C)c1 :
class 0

Call for entry CC(C)OC(=O)Nc1cccc(Cl)c1 :
class 0
